The origin of these recorded values is patent US20240247080A1.

# system-under-test: T1, human GIP receptor (human, UniProt P48546 22-466)
# T1 sequence (looked up): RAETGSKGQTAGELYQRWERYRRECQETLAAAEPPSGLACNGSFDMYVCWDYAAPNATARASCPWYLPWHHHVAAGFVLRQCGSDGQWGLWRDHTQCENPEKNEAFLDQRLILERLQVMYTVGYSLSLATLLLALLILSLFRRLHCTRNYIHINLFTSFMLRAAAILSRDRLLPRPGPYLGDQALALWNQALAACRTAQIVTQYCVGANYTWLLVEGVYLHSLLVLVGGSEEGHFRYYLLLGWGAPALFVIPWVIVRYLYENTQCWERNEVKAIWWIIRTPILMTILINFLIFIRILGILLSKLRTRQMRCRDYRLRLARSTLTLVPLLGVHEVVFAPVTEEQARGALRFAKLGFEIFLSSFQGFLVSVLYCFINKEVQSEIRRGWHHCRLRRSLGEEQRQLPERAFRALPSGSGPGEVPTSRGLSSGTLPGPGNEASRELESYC
# procedure-summary: cell-based or functional assay
Starred links: 1 amine or outer side, 2 acyl side, 3 side chain; linkers in the order of their positions; H or OH if unused. Non-standard residues stand in square brackets, D forms with d. Groups on a side chain read outwards from the residue. No end group written: not given here. *: point of attachment. C20 diacid = O=C(O)CCCCCCCCCCCCCCCCCCC(=O)*; C18 diacid = O=C(O)CCCCCCCCCCCCCCCCC(=O)*; γGlu = O=C(O)[C@H](CCC(=O)[*:2])N[*:1]; AEEA = NCCOCCOCC(=O)O; Aib = CC(C)(N)C(=O)O
recorded-endpoint: EC50, CreLuc assay, 100% hP (nM)
# unit: nM | format: bare number

The measured EC50, CreLuc assay, 100% hP associated with Y[Aib]EGTFTSDYSI[Aib]LEKQAQ[Aib]EFVEWLIK([AEEA-AEEA-γGlu-γGlu-γGlu-γGlu-C18 diacid])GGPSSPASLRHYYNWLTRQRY-NH2 (also: TFA salt) [Compound 56] reads 1.02

Continuing:
Looking up YXEGTFTSDYSIXLEKQAQXAFVEWLIKGGPSSYVSLRHYYNWLTRQRY (Aib at 2, 13, 20; K28 side chain: C20DA-gGlu-gGlu-gGlu-gGlu-gGlu-gGlu-eLys; C-terminal NH2) [Compound 40] , I found its EC50, CreLuc assay, 100% hP recorded as 4.36

Value of EC50, CreLuc assay, 100% hP reported for the binder Y[Aib]EGTFTSDYSI[Aib]LEKQAE[Aib]AFVQWLIKGGPSEPASLRHYYNWLTRQRY-NH2 (not fully specified (residue 28); also: TFA salt) [Compound 54] is 1.4

Noted for Y[Aib]EGTFTSDYSI[Aib]LEKQAQ[Aib]AFVEWLIK([γGlu-γGlu-γGlu-γGlu-γGlu-γGlu-C20 diacid])GGGSEYVSLRHYYNWLTRQRY-NH2 (also: TFA salt) [Compound 65] : its EC50, CreLuc assay, 100% hP reads 15.7
